The following molecules are shown together with reported pest or weed control at 500 g/ha values.
System: Kochia (Kochia scoparia)
Experiment: Test A preemergence
Type: in vivo
Details: Bassia scoparia, pre-emergence, 240 h, 500 g ai/ha, preemergence; 0 to 100 scale where 0 is no effect and 100 is complete control; read-out: Kochia plant response rating
Measured Attribute: pest or weed control at 500 g/ha (%)

| Molecule | Data Value |
| --- | --- |
| CN1C[C@H](c2ccc(C(F)(F)F)cc2)[C@@H](C(=O)Nc2cccc(Cl)c2F)C1=O | 60 |
| CN1C[C@H](c2ccc(F)c(Br)c2)[C@@H](C(=O)Nc2cccc(F)c2F)C1=O | 80 |
| COc1cc(C(F)(F)F)ccc1[C@H]1CN(C)C(=O)[C@@H]1C(=O)Nc1cccc(F)c1C | 30 |
| CN1CC(c2cccc(O)c2)C(C(=O)Nc2cccc(F)c2F)C1=O (centres unmarked) | 0 |
| CSc1ccccc1NC(=O)[C@H]1C(=O)NC[C@@H]1c1ccc(F)c(C#N)c1 | 70 |
| CN1C[C@H](c2csc(C(F)F)c2)[C@@H](C(=O)Nc2ccccc2F)C1=O | 80 |
| CSc1ccccc1NC(=O)[C@H]1C(=O)N(C)C[C@@H]1c1ccc2c(c1)OC(F)(F)O2 | 90 |
| O=C1NC[C@H](c2cc(C(F)F)cs2)[C@H]1C(=O)Nc1cccc(F)c1F | 70 |
| Cc1ccc([C@H]2CCN(C)C(=O)[C@@H]2C(=O)Nc2cccc(F)c2F)cc1 | 50 |
| N#Cc1cc([C@H]2CNC(=O)[C@]2(O)C(=O)Nc2ccccc2F)ccc1F | 0 |
| CN1C[C@H](c2cccc(C(C)(F)F)c2)[C@@H](C(=O)Nc2ccccc2F)C1=O | 80 |
| CCc1cc([C@H]2CN(C)C(=O)[C@@H]2C(=O)Nc2ccccc2F)cs1 | 80 |
| CN1C[C@H](c2cccc(C(C)(F)F)c2)[C@@H](C(=O)Nc2ccccc2S(C)(=O)=O)C1=O | 80 |
| O=C1NC[C@H](c2ccc(C(F)(F)F)cc2)C1C(=O)Nc1ccccc1CO (some centres unmarked) | 0 |
| O=C1NCC[C@H](c2cccc(Cl)c2)[C@H]1C(=O)Nc1ccccc1F | 30 |
| CSc1ccccc1NC(=O)[C@H]1C(=O)N(C)C[C@@H]1c1cccc(C(F)(F)F)c1 | 90 |
| CN1C[C@H](c2ccc(F)c(C#N)c2)[C@@H](C(=O)Nc2ccccc2F)C1=O | 70 |

----------
The following molecules are shown together with reported Plant response rating, Ragweed values.
Test system: ragweed (common ragweed, Ambrosia elatior)
Assay: Test A preemergence
Assay type: in vivo
Settings: 125 g ai/ha, Preemergence; visual injury after approximately 10 d; 0 to 100 scale where 0 is no effect and 100 is complete control

| Molecule | Target | Plant response rating, Ragweed |
| --- | --- | --- |
| CN1CC(c2ccc(Br)cc2)C(C(=O)Nc2ccccc2S(C)(=O)=O)C1=O (stereo not drawn) | ragweed (common ragweed, Ambrosia elatior) | 50 |
| C=CCN1CC(c2cccc(C(F)(F)F)c2)C(C(=O)Nc2cccc(F)c2F)C1=O (stereo not drawn) | ragweed (common ragweed, Ambrosia elatior) | 0 |
| O=C(Nc1ccccc1F)C1C(=O)N(CC=CBr)CC1c1cccc(C(F)(F)F)c1 (stereo not drawn) | ragweed (common ragweed, Ambrosia elatior) | 0 |
| Cc1ccc(C2CNC(=O)C2C(=O)Nc2cccc(F)c2F)cc1C(F)(F)F (stereo not drawn) [Compound 642] | ragweed (common ragweed, Ambrosia elatior) | 0 |
| O=C(Nc1ccccc1F)C1C(=O)N(C2C=CCCC2)CC1c1cccc(C(F)(F)F)c1 (stereo not drawn) | ragweed (common ragweed, Ambrosia elatior) | 0 |
| CN1CC(c2ccc(F)c(C(F)(F)F)c2)C(C(=O)Nc2cccc(F)c2F)C1=O (stereo not drawn) | ragweed (common ragweed, Ambrosia elatior) | 60 |
| Cc1ccc(C2CNC(=O)C2C(=O)Nc2cccc(F)c2F)cc1C(F)(F)F (racemic) [Compound 679] | ragweed (common ragweed, Ambrosia elatior) | 0 |
| CN1CC(c2ccc(C(F)(F)F)cc2)C(C(=O)Nc2ccc(F)cc2F)C1=O (stereo not drawn) | ragweed (common ragweed, Ambrosia elatior) | 20 |
| O=C1NCC(c2ccc(C(F)(F)F)c(F)c2)C1C(=O)Nc1ccc(F)cc1F (racemic) | ragweed (common ragweed, Ambrosia elatior) | 0 |
